pIC50 values by entry
Test system: Con-NCI-H82 cell
PROCEDURE_TEXT: CellTiter-Glo cell viability, Con-NCI-H82 cell (empty-vector control)
Type: cell-based, human
ASSAY_CONDITIONS: Homo sapiens, NCI-H82, NCI-H82 transfected with empty virus vector (control), intracellular ATP, read-out: inhibitory effect on Con-NCI-H82 (IC50)
pIC50: −log10 of the molar value.
ASSAY_READOUT: pIC50

[[record]]
molecule = "[2H]C([2H])([2H])Oc1c(OC)ccc2c1C(C1CCCC1)N1CCc3cc4c(cc3C1=C2)OCO4 (stereo not drawn) [AB36501]"
assay_readout = "pIC50"
readout_number = 6.01

[[record]]
molecule = "COc1ccc2c(c1OCCCCOc1ccccc1)C(C(Cl)(Cl)Cl)N1CCc3cc4c(cc3C1=C2)OCO4 (stereo not drawn) [AB35476]"
assay_readout = "pIC50"
readout_number = 6.00

[[record]]
molecule = "COc1ccc2c(c1OCCCCl)C(C(Cl)(Cl)Cl)N1CCc3cc4c(cc3C1=C2)OCO4 (stereo not drawn) [AB35441]"
assay_readout = "pIC50"
readout_number = 6.00

